Entries below carry reported ΔTm on Dual specificity mitogen-activated protein kinase kinase 6 (Homo sapiens) (UniProt P52564).
Sequence (P52564 whole entry): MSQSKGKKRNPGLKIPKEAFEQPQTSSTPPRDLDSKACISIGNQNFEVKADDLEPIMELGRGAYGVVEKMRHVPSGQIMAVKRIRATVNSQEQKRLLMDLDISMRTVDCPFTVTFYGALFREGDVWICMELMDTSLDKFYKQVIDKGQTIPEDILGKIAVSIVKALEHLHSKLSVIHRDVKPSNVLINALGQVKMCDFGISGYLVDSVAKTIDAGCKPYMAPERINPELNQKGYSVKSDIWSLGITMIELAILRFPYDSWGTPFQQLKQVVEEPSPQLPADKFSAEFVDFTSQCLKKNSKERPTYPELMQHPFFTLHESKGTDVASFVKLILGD
One number for each entry, in °C.

Below, each entry is followed by its recorded ΔTm result.
line-notation	display-unit	ΔTm
O=C1Nc2cc(Br)ccc2/C1=C1/Nc2ccccc2/C1=N\O	°C	0.2
COc1cc(O)c2c(c1)oc(=O)c1c3cc(O)c(O)cc3oc21	°C	0.2

In: // query ΔTm value for entry "C#Cc1cccc(Nc2ncnc3cc(OCCOC)c(OCCOC)cc23)c1"
Out: 0.2

* * *

target-under-test: Calcium/calmodulin-dependent protein kinase type II subunit delta (Homo sapiens) (UniProt Q13557)
Sequence (Q13557 whole entry): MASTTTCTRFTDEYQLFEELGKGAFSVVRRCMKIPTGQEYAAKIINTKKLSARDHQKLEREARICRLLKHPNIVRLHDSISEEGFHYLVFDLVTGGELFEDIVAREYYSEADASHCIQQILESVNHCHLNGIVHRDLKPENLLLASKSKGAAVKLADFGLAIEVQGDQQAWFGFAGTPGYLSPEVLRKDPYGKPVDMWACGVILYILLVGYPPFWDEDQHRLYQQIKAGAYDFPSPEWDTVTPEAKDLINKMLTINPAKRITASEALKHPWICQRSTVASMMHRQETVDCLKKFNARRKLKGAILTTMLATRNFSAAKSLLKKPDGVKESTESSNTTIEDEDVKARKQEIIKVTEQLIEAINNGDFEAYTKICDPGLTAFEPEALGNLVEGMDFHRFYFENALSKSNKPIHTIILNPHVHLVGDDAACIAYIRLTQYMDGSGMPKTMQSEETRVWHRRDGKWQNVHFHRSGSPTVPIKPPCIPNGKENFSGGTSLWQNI
assay-metric: ΔTm (°C)
One number for each entry, in °C.

Below, each entry is followed by its recorded ΔTm result.
compound	ΔTm [°C]
CC(C)N(CCO)c1nc(Nc2cccc(Cl)c2)c2ncn(C(C)C)c2n1	0.2
O=c1c(-c2ccc(F)cc2)c(-c2ccncc2)[nH]n1-c1ccc(Cl)cc1	0.1
O=c1cc(-c2ccc(O)cc2)oc2cc(O)cc(O)c12	0.7
NC(=O)c1ccc(-c2nc(-c3ccc4c(c3)OCCO4)c(-c3ccccn3)[nH]2)cc1	0.3
O=C1Nc2ccccc2/C1=C1/Nc2ccccc2/C1=N\O	2.8
CC(C)n1cnc2/c(=N/c3cccc(Cl)c3)nc(NCCO)[nH]c21	-0.4
C[S+]([O-])c1ccc(-c2nc(-c3ccc(F)cc3)c(-c3ccncc3)[nH]2)cc1 (configuration not stated)	-0.3
NCCNS(=O)(=O)c1cccc2c(Cl)cccc12	-0.1
CC(C)(C)c1cc(C=C2C(=O)C=CC2=O)cc(C(C)(C)C)c1O	2.1
COc1cc2ncnc(Nc3cccc(O)c3)c2cc1OC	-0.6

Batch request: ΔTm for each of the following compounds.
1. O=C1Nc2ccccc2/C1=C\c1ccc[nH]1
2. c1ccc(-c2n[nH]c3c2oc2ccccc23)cc1
3. Oc1cc(O)cc(/C=C/c2ccc(O)c(O)c2)c1
4. CCN(CC)CCNC(=O)c1c(C)[nH]c(/C=C2\C(=O)Nc3ccc(F)cc32)c1C

Out:
1. -0.5
2. -0.2
3. 0.1
4. 2.3

Numbers sourced from ChEMBL document CHEMBL1145498.
